Measured TGI by item
Test system: SF-539 CNS
Experiment: NCI tumour cell line growth inhibition, 48 h
parameter: TGI

>  <compound>
c1ccc(COc2ccc(C[P+](c3ccccc3)(c3ccccc3)c3ccccc3)cc2)cc1

>  <assay value>
3.5 µM

$$$$
>  <compound>
Oc1c(OCc2nnc(CCCCCCCCc3nnc(COc4ccc5ccccc5c4O)n3Nc3ccccc3)n2Nc2ccccc2)ccc2ccccc12

>  <assay value>
20 µM

$$$$
>  <compound>
CCCCN(CC)C(=O)C(=O)C1C(=O)Nc2ccccc2S1=O (stereo unspecified)

>  <assay value>
> 100 µM

$$$$
>  <compound>
O=S(=O)(O)c1cc(Cl)c(O)c2ncc(Cl)cc12

>  <assay value>
> 100 µM

$$$$
>  <compound>
CN(C)c1c(Cl)c(=O)oc2c1ccc1nc(-c3ccccc3)sc12

>  <assay value>
> 100 µM

$$$$
>  <compound>
[Cu+2].[Cu+2].[O-]c1ccccc1C=Nc1ccccc1[O-].[O-]c1ccccc1C=Nc1ccccc1[O-]

>  <assay value>
25.9 µM

$$$$
>  <compound>
CN(C)CCC1(C2=CCCC2)CC/C(=C\c2ccc3c(c2)OCO3)C1=O (stereo unspecified)

>  <assay value>
30.2 µM

$$$$
>  <compound>
COc1c(C2(c3ccc(F)cc3)SCCCS2)c(=O)c1=O

>  <assay value>
> 100 µM

$$$$
>  <compound>
Cc1ccc(S(=O)(=O)N(C)C)cc1[N+](=O)[O-]

>  <assay value>
> 100 µM

$$$$
>  <compound>
COc1c2nc(CCl)n(C)c(=O)c2c(OC)c2c(=O)n(C)c(CCl)nc12

>  <assay value>
13.1 µM

$$$$
>  <compound>
Nc1c(Br)cc(-c2cc(Br)c(N)c(Br)c2)cc1Br

>  <assay value>
> 100 µM

$$$$
>  <compound>
CN(NC(=O)c1ccco1)C1=NCCCCN1

>  <assay value>
> 100 µM

$$$$
>  <compound>
CCOC(C)OCC#CCCBr (stereo unspecified)

>  <assay value>
> 100 µM

$$$$
>  <compound>
Cc1ccc(N=Nc2c(O)c3ccccc3[nH]c2=O)c(S(=O)(=O)N(C)C)c1

>  <assay value>
> 100 µM

$$$$
>  <compound>
CS(=O)(=O)C1S(=O)(=O)OCCOS1(=O)=O

>  <assay value>
> 100 µM

$$$$
>  <compound>
COC(=O)C(=O)C(C(=O)C(=O)Nc1ccccc1C(=O)OC)c1nc2ccc(C(=O)c3ccccc3)cc2[nH]c1=O (stereo unspecified)

>  <assay value>
> 100 µM

$$$$
>  <compound>
Cc1cccc(C)c1NC(=O)CCC(=O)NNC(=O)c1cc(O)c2ccccc2c1

>  <assay value>
78.2 µM

$$$$
>  <compound>
c1ccc2c(c1)O[As](O[As]1Oc3ccccc3O1)O2

>  <assay value>
6.27 µM

$$$$
>  <compound>
COC(=O)OC[C@H]1O[C@@H](n2cc(C)c(=O)[nH]c2=O)CC1OC(=O)OC (stereo partly specified)

>  <assay value>
> 100 µM

$$$$
>  <compound>
O=C(/C=C/c1ccc(OCCCCCCCCCCOc2ccc(/C=C/C(=O)c3ccc(Cl)cc3)cc2)cc1)c1ccc(Cl)cc1

>  <assay value>
> 100 µM

$$$$
>  <compound>
Cc1cc(N(CCCl)CCCl)ccc1C=Nc1cccnc1

>  <assay value>
> 100 µM

$$$$
